tested on: E. faecium; test: Antibacterial assay with an excess concentration of biomolecules (Ser, Gly, inosine, dT, FA); format: cell-based, Enterococcus faecium (JCM5804); settings: Enterococcus faecium, JCM5804, E. faecium JCM5804; 100 mM Serine; read-out: EC50
experimental endpoint: pEC50
One number for each entry, as −log10 of the molar value.

[[record]]
compound = "Cc1n[nH]c2c1C(c1cc(N3CCCC3)cc(C(F)(F)F)c1)(C(C)C)C(C#N)=C(N)O2 (centres unmarked) [SHMT-IN-2]"
numeric_value = 5.40

[[record]]
compound = "O=c1[nH]c(=O)n([C@@H]2O[C@H](CO)[C@@H](O)[C@H]2O)cc1F [5-FUrd, 5-fluorouridine]"
numeric_value = 7.01

[[record]]
compound = "CN(Cc1cnc2nc(N)nc(N)c2n1)c1ccc(C(=O)N[C@@H](CCC(=O)O)C(=O)O)cc1 [MTX, methotrexate]"
numeric_value = 8.59

[[record]]
compound = "Cc1n[nH]c2c1[C@](c1cc(CO)cc(-c3ccccc3)c1)(C(C)C)C(C#N)=C(N)O2 [(+)-SHIN-1]"
numeric_value = 9.37


Parameters: items (list). Returns: pEC50 for each item.
1. O=c1[nH]c(=O)n([C@H]2C[C@H](O)[C@@H](CO)O2)cc1F [5-FdU, 5-fluoro-2′-deoxyuridine]
2. COc1cc(Cc2cnc(N)nc2N)cc(OC)c1OC [TMP, trimethoprim]
3. Cc1nc2ccc(CN(C)c3ccc(C(=O)N[C@@H](CCC(=O)O)C(=O)O)s3)cc2c(=O)[nH]1 [RTX, raltitrexed]
4. Nc1nc2[nH]cc(CCc3ccc(C(=O)N[C@@H](CCC(=O)O)C(=O)O)cc3)c2c(=O)[nH]1 [PMX, pemetrexed]

OUT:
7.49
8.48
7.85
9.60

###

test system: E. faecium; experiment: Antibacterial assay with an excess concentration of biomolecules (Ser, Gly, inosine, dT, FA); assay type: cell-based, Enterococcus faecium (JCM5804); details: E. faecium JCM5804; 100 mM Serine; read-out: EC50
experimental endpoint: pEC50
Give bare numbers, as −log10 of the molar value.

Bench note, E. faecium: Cc1[nH]nc2c1C(c1cc(CO)cc(-c3ccccc3)c1)(C(C)C)C(C#N)=C(N)O2 (stereo not shown) [SHIN-1] , pEC50 reads 8.47

###

Tested on: E. faecium
Experiment: Antibacterial assay with an excess concentration of biomolecules (Ser, Gly, inosine, dT, FA)
Type: cell-based, Enterococcus faecium (JCM5804)
Details: E. faecium JCM5804; 1 mM Inosine; read-out: EC50
Method: E. faecium and E. faecalis were diluted to turbidity equivalents that matched 1.0 McFarland (McF) standard in distilled water (S. aureus and E. coli were also diluted to 0.5 McF), and additionally diluted 1:200 in Mueller–Hinton (MH) broth. […] The optical density at 600 nm (OD600) was measured using a GloMax microtiter plate reader (Promega, WI, USA), and the EC50 values of each test compound and standard error were calculated by Microsoft Excel function, AVERAGE and STDEV/SQRT. […]
experimental endpoint: pEC50
One number for each entry, as −log10 of the molar value.

Kindly note the recorded pEC50 for Cc1[nH]nc2c1C(c1cc(CO)cc(-c3ccccc3)c1)(C(C)C)C(C#N)=C(N)O2 (stereo not shown) , which is 8.28
